Read-out: matrix metalloproteinase-3 (MMP3), MMP3 (gene 4314)
Experiment: LTEA_HepaRG_MMP3: Life Technologies and Expression Analysis (LTEA) Assay for matrix metalloproteinase-3 (MMP3) using HepaRG (AID 2283519)
Details: mRNA level, 48 h; actives raise or lower the signal
Active and inactive are the calls of the source. How the source made its calls: active means hit-call score of the fitted dose curve at least 0.9, where 1 is the maximum; inactive means score below 0.9.
Give one outcome, nothing more. List: active, inactive

Data request: Answer briefly: the call reported for COP(N)(=O)SC (configuration not stated) in this assay.
Data returned: inactive

Data request: Answer briefly: the call reported for "CC(C)Oc1cc(-n2nc(C(C)(C)C)oc2=O)c(Cl)cc1Cl" in this assay.
Data returned: inactive

###

Test: Tanguay_ZF_120hpf_PFIN_legacy: (Legacy) Oregon State University Tanguay Lab 120 Hour Post-fertilization zebrafish Assay for Pectoral Fin Malformation (AID 2283648);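 further: each larva judged yes or no for fin defect by brightfield with dead larvae skipped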
Records with an inconclusive call do not appear. Activity calls are given as the source filed them. Rule for the calls: active = hit-call score of the fitted dose curve at least 0.9, where 1 is the maximum; inconclusive = response in the unintended direction; inactive = score below 0.9.
ENDPOINT LABEL: AC50

// solved cases for AC50 follow
COMPOUND | ENDPOINT LABEL | EXPERIMENTAL VALUE
CCOC(=O)C(Cl)Cc1cc(-n2nc(C)n(C(F)F)c2=O)c(F)cc1Cl (configuration not stated) | AC50 | 2.19 µM (active)
CC(C)C1(C)N=C(c2nc3ccccc3cc2C(=O)O)NC1=O (configuration not stated) | AC50 | inactive
Cc1c(F)c(F)c(COC(=O)C2C(/C=C(\Cl)C(F)(F)F)C2(C)C)c(F)c1F (configuration not stated) | AC50 | 3.13 µM (active)
Fc1ccc(Oc2ccnc3cc(Cl)cc(Cl)c23)cc1 | AC50 | inactive
COc1nc(NC(C)C)nc(NC(C)C)n1 | AC50 | inactive

Data request: Given the compound "COc1ccc(C(c2ccc(OC)cc2)C(Cl)(Cl)Cl)cc1" , write its reported AC50.
Data returned: inactive

Data request: Given the compound "CC(C)Oc1cc(-n2nc(C(C)(C)C)oc2=O)c(Cl)cc1Cl" , write its reported AC50.
Data returned: inactive

Data request: Given the compound "CON(C)C(=O)Nc1ccc(Cl)c(Cl)c1" , write its reported AC50.
Data returned: inactive

Data request: Given the compound C=CCC1=C(C)C(OC(=O)C2C(C=C(C)C)C2(C)C)CC1=O (configuration not stated) , write its reported AC50.
Data returned: inactive

Data request: Given the compound CCCC1COC(Cn2cncn2)(c2ccc(Cl)cc2Cl)O1 (configuration not stated) , write its reported AC50.
Data returned: inactive

Data request: Given the compound CC(Oc1ccc(Cl)cc1Cl)C(=O)O (configuration not stated) , write its reported AC50.
Data returned: inactive

Data request: Given the compound "CCNc1nc(Cl)nc(NC(C)C)n1" , write its reported AC50.
Data returned: inactive

###

Read-out: Heat shock 70 kDa protein 1 (HSPA1A), gene 3303
Experiment: LTEA_HepaRG_HSPA1A: Life Technologies and Expression Analysis (LTEA) Assay for Heat shock 70 kDa protein 1 (HSPA1A) using HepaRG (AID 2283502)
Conditions: mRNA level, 48 h; actives raise or lower the signal
Active and inactive are the calls of the source. Rule for the calls: active = hit-call score of the fitted dose curve at least 0.9, where 1 is the maximum; inactive = score below 0.9.
Give one outcome, nothing more. List: T = active, F = inactive

Data request: Answer briefly: the call reported for "CC(C)Oc1cc(-n2nc(C(C)(C)C)oc2=O)c(Cl)cc1Cl" in this assay.
Data returned: F

Data request: Answer briefly: the call reported for "CCCCNC(=O)n1c(NC(=O)OC)nc2ccccc21" in this assay.
Data returned: F

Data request: Answer briefly: the call reported for "COC(=O)C=C(C)OP(=O)(OC)OC" in this assay.
Data returned: F
